# Test system: HOP-62 NSCLC
# protocol.text: NCI tumour cell line growth inhibition, 48 h
Would you mind telling me the reported TGI of each entry?

### Prompt Please indicate TGI recorded for S=C(N/N=C\C(=N/NC(=S)N1CCCCC1)c1ccccc1)N1CCCCC1
### Response 5.83 µM

### Prompt Please indicate TGI recorded for CNCCn1c(=O)c2cc(OC)c(OC)cc2c2ccc3cc4c(cc3c21)OCO4
### Response 1.08 µM

### Prompt Please indicate TGI recorded for COC(=O)[C@@H]1CCCCC[C@H]2C(CO)=C(C)C(=O)C12 (stereo partly specified)
### Response > 100 µM

### Prompt Please indicate TGI recorded for CCOP(=O)(OCC)OC(C#N)c1ccc(-c2ccccc2)cc1 (stereo unspecified)
### Response > 100 µM

### Prompt Please indicate TGI recorded for C=C(C)OCOCCOC
### Response > 100 µM

### Prompt Please indicate TGI recorded for COc1cc(C(=O)Nc2cc3c(cc2Oc2cc(C)cc(C)c2)C(=O)N(C)[C@@H](CC(=O)N(C)O)C(=O)N3)c(Br)c(OC)c1OC
### Response 0.00372 µM

### Prompt Please indicate TGI recorded for CCOC(=O)c1cc(/C=C/C(C)=C/C(=O)OC)oc1C
### Response > 100 µM

### Prompt Please indicate TGI recorded for CCC1=NC(CO)[C@H](c2ccccc2)O1 (stereo partly specified)
### Response > 100 µM

### Prompt Please indicate TGI recorded for CC[O-].CC[O-].O=S(=O)([O-])c1ccc([O-])c2ncccc12.O=S(=O)([O-])c1ccc([O-])c2ncccc12.[Ti+4]
### Response > 100 µM

### Prompt Please indicate TGI recorded for COc1ccc(/C=C\c2cc(OC)c(O[Si](C)(C)C(C)(C)C)c(OC)c2)cc1
### Response > 100 µM

### Prompt Please indicate TGI recorded for CCC(O)(Cc1ccc(OC)cc1)c1ccc(OC)cc1 (stereo unspecified)
### Response > 100 µM

### Prompt Please indicate TGI recorded for Cc1cc(C)nc(NS(=O)(=O)c2ccc(Nc3c4ccccc4nc4c(C(=O)N5CCN(CCOS(C)(=O)=O)CC5)cccc34)cc2)n1
### Response > 100 µM

### Prompt Please indicate TGI recorded for CS(=O)(=O)Nc1ccc2c(c1)N(S(C)(=O)=O)CC2CCl (stereo unspecified)
### Response > 100 µM

### Prompt Please indicate TGI recorded for Cc1c(C(=O)NCCN2CCOCC2)cn2ncnc(Oc3ccc(NC(=O)Nc4ccc(Cl)c(C(F)(F)F)c4)cc3)c12
### Response 3.92 µM

### Prompt Please indicate TGI recorded for C=C1OC(c2ccccc2NC)=NC12CCCCC2
### Response > 100 µM

### Prompt Please indicate TGI recorded for COc1cc(S(=O)(=O)Nc2ccc(C(=O)/C=C/c3ccc(O)cc3)cc2)ccc1F
### Response > 100 µM

### Prompt Please indicate TGI recorded for CCOC(=O)/C=C/C1=C(c2cccs2)c2ccccc2CC1
### Response > 100 µM

### Prompt Please indicate TGI recorded for CC1(C)OCC2OC3([C@@H]4OC(C)(C)O[C@H]4CO)OC(C)(C)OC3C2O1 (stereo partly specified)
### Response > 100 µM

### Prompt Please indicate TGI recorded for CC(C)c1cccc(C(C)C)c1NC(=O)/C(CC(=O)CC(c1ccccc1)c1c(O)c2ccccc2oc1=O)=N/O (stereo unspecified)
### Response > 100 µM

### Prompt Please indicate TGI recorded for COc1ccc2cc(-c3c(-c4ccncc4)nc(-c4ccc(S(C)(=O)=O)cc4C)n3C)ccc2c1
### Response > 23.9 µM

### Prompt Please indicate TGI recorded for O=C1NC2CCCCC2N=C1CC(=O)c1ccc(Br)cc1 (stereo unspecified)
### Response > 100 µM
